system: LPS induced IL-6 production; assay: LPS (lipopolysaccharide) induced IL-6 production mouse assay; settings: 3 mg/kg oral, 1 h before LPS 2.5 mg/kg i.p.; serum IL-6 2 h after LPS; p<0.05
The following compounds are shown together with reported Inhibition of LPS induced IL-6 production, % inhibition values.
experimental-endpoint: Inhibition of LPS induced IL-6 production, % inhibition

> print(dat)
                                    compound      assay.result
 1  CCOc1cc(=O)n(C)cc1-c1cc(S(=O)(=O)CC)ccc1Oc1ccc(F)cc1F  84.4 @ 3 mg/kg %
 2  CCOc1cc(=O)n(C)cc1-c1cc(S(=O)(=O)C2CC2)ccc1Oc1ccc(F)cc1F  57.6 @ 3 mg/kg %
 3  COc1cc(=O)n(C)cc1-c1cc(NS(C)(=O)=O)ccc1Oc1ccc(F)cc1F  68.8 @ 3 mg/kg %
 4  CCOc1cc(=O)n(C)cc1-c1cc(NS(=O)(=O)CC)ccc1Oc1ccc(F)cc1F  84.0 @ 3 mg/kg %
 5  [2H]C([2H])(C)Oc1cc(=O)n(C)cc1-c1cc(NS(=O)(=O)CC)ccc1Oc1ccc(F)cc1F  63.6 @ 3 mg/kg %
 6  CCOc1cc(=O)n(C)cc1-c1cc(S(=O)(=O)CC)ccc1OCC1CC1(F)F (stereo not drawn)  72.4 @ 3 mg/kg %
 7  CCS(=O)(=O)Nc1ccc(Oc2ccc(F)cc2F)c(-c2ccc(=O)n(C)c2)c1  73.9 @ 3 mg/kg %
 8  CCS(=O)(=O)Nc1ccc(Oc2ccc(F)cc2F)c(-c2cn(C)c(=O)cc2OC)c1  76.9 @ 3 mg/kg %
 9  CCNc1cc(=O)n(C)cc1-c1cc(NS(=O)(=O)CC)ccc1Oc1ccc(F)cc1F  42.7 @ 3 mg/kg %
10  CCS(=O)(=O)Nc1ccc(Oc2ccc(F)cc2F)c(-c2cn(C)c(=O)cc2OCC(F)(F)F)c1  71.0 @ 3 mg/kg %
11  CCOc1cc(=O)n(C)cc1-c1cc(S(=O)(=O)C(C)C)ccc1Oc1ccc(F)cc1F  38.0 @ 3 mg/kg %
12  CCOc1cc(=O)n(C)cc1-c1cc(NS(=O)(=O)CC)ccc1Oc1ccc(OC(F)(F)F)cc1  54.3 @ 3 mg/kg %
13  CCOc1cc(=O)n(C)cc1-c1cc(NS(=O)(=O)CC)ccc1Oc1ccc(Cl)cc1  66.4 @ 3 mg/kg %
14  CCOc1cc(=O)n(C)cc1-c1cc(NS(=O)(=O)CC)ccc1Oc1ccc(C#N)cc1  60.5 @ 3 mg/kg %
15  CCS(=O)(=O)Nc1ccc(Oc2ccc(F)cc2F)c(-c2cn(C)c(=O)cc2OCC2(C)CC2(F)F)c1 (stereo not drawn)  50.9 @ 3 mg/kg %
16  CCS(=O)(=O)Nc1ccc(Oc2ccc(F)cc2F)c(-c2cn(C)c(=O)cc2OC2CCC2)c1  80.0 @ 3 mg/kg %
17  CCCOc1cc(=O)n(C)cc1-c1cc(NS(=O)(=O)CC)ccc1Oc1ccc(F)cc1F  58.0 @ 3 mg/kg %
18  CCS(=O)(=O)Nc1ccc(Oc2ccc(F)cc2F)c(-c2cn(C)c(=O)cc2-n2cccn2)c1  48.6 @ 3 mg/kg %

* * *

target: first (BD1: amino acids K57-E168) bromodomain of BRD4 (Homo sapiens, UniProt O60885); construct: His-tagged first (BD1: amino acids K57-E168); assay: TR-FRET bromodomain binding assay, BRD4 BD1; conditions: TR-FRET assay protocol (A-G, compound concentration range); Ki calculated from IC50, probe Kd and probe concentration; read-out: TR-FRET Binding Ki: BRD4 (BDI_K57-E168)
pKi: −log10 of the molar value.
The threshold is inclusive: pKi of exactly 7 counts as t; values below receive f.

> print(dat)
                             compound.smiles  answer.label
 1  Cn1nc(-c2ccccc2Oc2ccccc2)c(-c2ccc(C(=O)N3CCCC3)cc2)cc1=O             f
 2  CN1CCN(Cc2ccc(-c3cc(=O)n(C)nc3-c3ccccc3Oc3ccccc3)cc2)CC1             t
 3  Cn1cc(-c2cc(NS(C)(=O)=O)ccc2Oc2ccc(F)cc2F)c(-c2ccc(CO)cc2)cc1=O             t
 4  Cn1nc(-c2ccccc2Oc2ccccc2)c(C2CCNCC2)cc1=O             f
 5    COc1cc(=O)n(C)nc1-c1ccccc1Oc1cccc(F)c1             f
 6  CCS(=O)(=O)Nc1ccc(Oc2ccc(F)cc2F)c(-c2cn(C)c(=O)cc2OC2COC2)c1             t
 7  Cn1cc(-c2cc(NS(C)(=O)=O)ccc2Oc2ccccc2F)ccc1=O             t
 8  CC(=O)OCc1ccc(-c2cc(=O)n(C)nc2-c2ccccc2Oc2ccccc2)cc1             f
 9  Cn1nc(-c2cc(CNC(=O)C(F)(F)F)ccc2Oc2ccccc2)ccc1=O             f
10  Cn1cc(-c2cc(NS(=O)(=O)CC(=O)O)ccc2Oc2ccccc2)ccc1=O             f
11  CCOc1cc(=O)n(C)cc1-c1cc(NC(=O)c2ccccc2CCc2ccccc2)ccc1Oc1ccc(F)cc1F             f
12  Cn1nc(-c2ccccc2Oc2ccccc2)c(-c2cccnc2)cc1=O             f
13  COCCNC(=O)c1ccc(-c2cc(=O)n(C)nc2-c2ccccc2Oc2ccccc2)cc1             f
14  Cn1nc(-c2ccccc2Oc2ccccc2)c(-c2ccc(S(=O)(=O)N3CCCC3)cc2)cc1=O             f
15  COc1cc(-c2cc(=O)n(C)nc2-c2cc(NS(C)(=O)=O)ccc2Oc2ccccc2)ccn1             f
16   CC(=O)c1cc(=O)n(C)nc1-c1ccccc1Oc1ccccc1             f
